molecular target: Aldehyde dehydrogenase 1A1 (Homo sapiens); assay: qHTS Assay for Inhibitors of Aldehyde Dehydrogenase 1 (ALDH1A1); conditions: Purified ALDH1A1, NADH fluorescence, propionaldehyde substrate; series mostly up to 75.3 µM
Screen size: about 220,000 compounds; about 16,000 (7.3%) were called active. About 25% were inconclusive and are not listed. Calls come from the whole dose curve; as a rule, active = well fitted inhibition curve with a large enough effect (not every such curve was filed as active); inconclusive = small, poorly fitted or top-dose-only effect, or another doubt; inactive = no such curve, though single readings can be large or run the other way. Many of the other results were omitted from the sample, so actives are more common in it than they were.
Answer with one of the outcomes given here: YES (active), NO (inactive)

Examples from the recorded data:
INSERT INTO assay_data (compound, class_assignment) VALUES
  ('Cc1[nH]c2ccccc2c1SCC(=O)Nc1nccs1', 'NO'),
  ('CCC(C)(C)NC(=O)C(c1cccc(OC)c1OC)N(CC(C)C)C(=O)CCC(=O)Nc1cc(C)on1 (stereo unspecified)', 'NO'),
  ('Cc1c(Cl)c([N+](=O)[O-])nn1CC(=O)NCC1CCCO1 (stereo unspecified)', 'NO'),
  ('N#CCCN1CCN(S(=O)(=O)c2ccc(S(=O)(=O)N3CCCC3)cc2)CC1', 'NO'),
  ('CC(=O)NC(Cc1c[nH]c2ccccc12)C(=O)O (stereo unspecified)', 'NO'),
  ('CCOc1ccccc1Nc1ccc(C(=O)O)cc1[N+](=O)[O-]', 'NO'),
  ('O=C(NNC(=S)NC1CCCCC1)c1ccccc1Cl', 'NO'),
  ('Cc1ccc(C(=O)N/C(=C/c2cccs2)C(=O)N2CCCCC2)cc1', 'NO'),
  ('COc1ccc(CNc2c(CO)cnc3c2cnn3C)cc1', 'NO'),
  ('CCOC(=O)C1C/C(=C\C(C)=O)c2cccc(C(F)(F)F)c2O1 (stereo unspecified)', 'NO');

Asked: How was `CCSc1ccccc1C(=O)Nc1ccc2c(c1)OCO2` classified in this test?
Given back: NO

Asked: Please let me know the test result on file for `CCOC(=O)C1=C(CC)Nc2ccccc2N=C1N` .
Given back: NO

Asked: // outcome(item) with item = CC(C)(C)CN1CCNC(=O)C1CC(=O)NC1Cc2ccccc2C1 (stereo unspecified)
Given back: NO

Asked: Query: recorded result category for `NC1=NC2(CCCCC2)N(c2ccc(F)cc2F)C(N)=N1` in this test
Given back: NO

Asked: Could you check what this test reported for `COc1ccc2c(c1)CCC/C2=N\OC(=O)c1ccccc1F` ?
Given back: NO

Asked: Name the outcome recorded for `CCC(CC)NC(=O)CSc1nnc(-c2c[nH]c3ccccc23)o1` in the assay.
Given back: NO

###

target: Aldehyde dehydrogenase 1A1 (Homo sapiens); assay: qHTS Assay for Inhibitors of Aldehyde Dehydrogenase 1 (ALDH1A1); settings: Purified ALDH1A1, NADH fluorescence, propionaldehyde substrate; series mostly up to 75.3 µM
About 16,000 (7.3%) of roughly 220,000 compounds were called active. Inconclusive results (about 25%) are left out. The call rests on the fitted dose curve; in most records, active means well fitted inhibition curve with a large enough effect (not every such curve was filed as active); inconclusive means small, poorly fitted or top-dose-only effect, or another doubt; inactive means no such curve, though single readings can be large or run the other way. Many of the other results were omitted from the sample, so actives are more common in it than they were.
Please answer using one outcome listed in t for active, f for inactive

INSERT INTO results (compound, class_assignment) VALUES
  ('CCSC1=C(C#N)C(=O)n2c1cc1c2CCCC1', 't'),
  ('CN(C)c1nc(N)nc(CSc2ccccn2)n1', 'f'),
  ('CC1=C(C)CC2C(=O)N(c3cccc4ccccc34)C(=O)C2C1 (centres undefined)', 't'),
  ('Cn1c(=O)c2c(nc(SCCNS(=O)(=O)c3ccccc3)n2C)n(C)c1=O', 'f'),
  ('Cc1nnc(SCC(=O)N2CCOCC2)[nH]c1=O', 'f');

Asked: Check the results log: what was the call for `COc1ccc(N2CCN(C(C)=C3C(=O)c4ccccc4C3=O)CC2)cc1` ?
Given back: f

Asked: I would be grateful if you could indicate the recorded call for `CC(C)=CCN1CCC2(CCc3ccccc32)CC1` .
Given back: f

Asked: # outcome recorded in this test, key = `CC(=C1C(=O)c2ccccc2C1=O)N1CCN(c2ccccn2)CC1`
Given back: t

Asked: Can you look up the reported call for `COC(=O)C(C(=O)OC)[C@@H](NC=O)c1ccccc1` for me?
Given back: f

Asked: Short answer needed: outcome of this test for CC1(C)CCCC2=C1CC1C(=O)N(c3ccccc3)C(=O)C1C2 (centres undefined) ?
Given back: f

Data credit: PubChem BioAssay AID1030
